- test-system: ER-α (Homo sapiens, UniProt P03372)
- Construct: we transfected ER-α–positive breast cancer MCF-7 cells; endogenous in cells; host or cells: MELN (MCF-7 stably transfected with ERE-βGlob-Luc-SVNeo)
- Sequence (P03372 1-595): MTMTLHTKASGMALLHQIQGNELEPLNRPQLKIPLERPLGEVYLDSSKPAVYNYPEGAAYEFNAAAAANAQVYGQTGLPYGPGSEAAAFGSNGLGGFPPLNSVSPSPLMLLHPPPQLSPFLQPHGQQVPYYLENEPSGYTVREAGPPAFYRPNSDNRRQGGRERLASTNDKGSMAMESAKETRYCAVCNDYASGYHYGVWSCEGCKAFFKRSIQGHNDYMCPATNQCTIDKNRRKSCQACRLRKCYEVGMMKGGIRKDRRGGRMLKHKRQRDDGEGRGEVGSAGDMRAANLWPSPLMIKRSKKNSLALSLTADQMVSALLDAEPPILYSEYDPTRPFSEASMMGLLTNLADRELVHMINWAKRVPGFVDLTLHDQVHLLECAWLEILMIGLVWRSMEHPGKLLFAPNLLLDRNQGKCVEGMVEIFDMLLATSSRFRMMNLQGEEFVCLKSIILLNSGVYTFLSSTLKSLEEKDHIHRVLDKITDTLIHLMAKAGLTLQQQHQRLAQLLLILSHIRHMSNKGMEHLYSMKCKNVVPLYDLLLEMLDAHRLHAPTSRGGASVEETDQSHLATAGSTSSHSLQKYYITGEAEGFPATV
- assay-overview: MELN cell luciferase assay (estrogen-responsive reporter in MCF-7 cells)
- Assay type: cell-based
observation-type: EC50 (pM)
Answers are plain numbers, in pM.

Data request: Under ER-α (Homo sapiens, UniProt P03372), report EC50 for C[C@H]1CCCC(=O)CCC/C=C/c2cc(O)cc(O)c2C(=O)O1 [Zearalenone, zearalenone]
Data returned: 313

====

- test-system: ER-α (Homo sapiens)
- Construct: we transfected ER-α–positive breast cancer MCF-7 cells; endogenous in cells; host or cells: MELN (MCF-7 stably transfected with ERE-βGlob-Luc-SVNeo)
- assay-overview: MELN cell luciferase assay (estrogen-responsive reporter in MCF-7 cells)
- Format: cell-based
- assay-context: half-maximal induction in MELN cell line, 16 hr; read-out: EC50 ± SE
observation-type: EC50 (µM)
Numbers only, in µM.

Data request: Under ER-α (Homo sapiens), report EC50 for ClC(Cl)=C(c1ccc(Cl)cc1)c1ccc(Cl)cc1
Data returned: 25.6

Quick batch: EC50 for everything below.
1. C[C@H]1CCC[C@H](O)CCCCCc2cc(O)cc(O)c2C(=O)O1
2. ClC(Cl)=C(c1ccc(Cl)cc1)c1ccccc1Cl
3. O=S1(=O)OC(c2ccc(O)cc2)(c2ccc(O)cc2)c2ccccc21
4. CCCCCCCCCc1ccc(O)cc1

Data returned:
[0.000135, 2.74, 36.9, 11]

====

For each of the molecules below, state its RTP.
- test-system: ER-α (Homo sapiens, UniProt P03372)
- Construct: we transfected ER-α–positive breast cancer MCF-7 cells; endogenous in cells; host or cells: MELN (MCF-7 stably transfected with ERE-βGlob-Luc-SVNeo)
- assay-overview: MELN cell luciferase assay (estrogen-responsive reporter in MCF-7 cells)
- Assay type: cell-based
- assay-context: ratio of EC50 values of E2 to compound; E2 set at 100
Give bare numbers.

Data request: Give the reported value of RTP for this record: ClC(Cl)=C(c1ccc(Cl)cc1)c1ccc(Cl)cc1
Data returned: 0.00007

Data request: Give the reported value of RTP for this record: C[C@H]1CCCC(=O)CCC/C=C/c2cc(O)cc(O)c2C(=O)O1
Data returned: 5.62

Data request: Give the reported value of RTP for this record: ClC(Cl)=C(c1ccc(Cl)cc1)c1ccccc1Cl
Data returned: 0.00063

Then this molecule:
Data request: Give the reported value of RTP for this record: C[C@H]1CCC[C@H](O)CCCCCc2cc(O)cc(O)c2C(=O)O1
Data returned: 13.0

Source of measurements: paper PMC1253752
